SYSTEM: human CD137 on primary human CD8+ T cells (human, UniProt Q07011 24-255)
Sequence (Q07011 24-255): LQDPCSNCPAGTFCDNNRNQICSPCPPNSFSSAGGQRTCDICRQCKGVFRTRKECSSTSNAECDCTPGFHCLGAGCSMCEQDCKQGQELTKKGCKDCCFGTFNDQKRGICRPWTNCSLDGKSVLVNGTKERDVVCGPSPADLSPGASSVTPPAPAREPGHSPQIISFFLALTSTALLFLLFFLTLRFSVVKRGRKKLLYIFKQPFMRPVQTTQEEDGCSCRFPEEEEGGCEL
PROTOCOL DESCRIPTION: cell-based or functional assay
MEASUREMENT KIND: IL-2 release EC50, NCI-H226 co-culture, Donor A (nM)
I only need the number, in nM, no unit after it.

Fill in the blank: the reported IL-2 release EC50, NCI-H226 co-culture, Donor A of FS22-172-003-AA/FS28-256-012 (bispecific antibody, human IgG1, kappa, L234A L235A, V domains shown, IgG1 mAb^2 with LALA) VH: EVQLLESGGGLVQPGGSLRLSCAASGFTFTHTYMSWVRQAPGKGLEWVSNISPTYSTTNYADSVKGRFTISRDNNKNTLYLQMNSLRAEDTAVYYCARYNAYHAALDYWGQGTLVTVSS VL: EIVLTQSPGTLSLSPGERATLSCRASQSVSSSYLAWYQQKPGQAPRLLIYGASSRATGIPDRFSGSGSGTDFTLTISRLEPEDFAVYYCQQSYYYPITFGQGTKVEIKR is ____. 1.56

Fill in the blank: the reported IL-2 release EC50, NCI-H226 co-culture, Donor A of FS22-172-003-AA/FS28-256-026 (bispecific antibody, human IgG1, kappa, L234A L235A, V domains shown, IgG1 mAb^2 with LALA) VH: EVQLLESGGGLVQPGGSLRLSCAASGFTFTQTYMSWVRQAPGKGLEWVSNISPTYSTTNYADSVKGRFTISRDNSKNTLYLQMNSLRAEDTAVYYCARYNAYQIGLDYWGQGTLVTVSS VL: EIVLTQSPGTLSLSPGERATLSCRASQSVSSSYLAWYQQKPGQAPRLLIYGASSRATGIPDRFSGSGSGTDFTLTISRLEPEDFAVYYCQQALGYPHTFGQGTKVEIKR is ____. 0.67

Fill in the blank: the reported IL-2 release EC50, NCI-H226 co-culture, Donor A of FS22-172-003-AA/FS28-256-023 (bispecific antibody, human IgG1, kappa, L234A L235A, V domains shown, IgG1 mAb^2 with LALA) VH: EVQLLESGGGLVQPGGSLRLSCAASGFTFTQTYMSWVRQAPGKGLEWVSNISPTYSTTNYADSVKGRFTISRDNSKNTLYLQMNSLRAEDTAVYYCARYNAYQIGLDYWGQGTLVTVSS VL: EIVLTQSPGTLSLSPGERATLSCRASQSVSSSYLAWYQQKPGQAPRLLIYGASSRATGIPDRFSGSGSGTDFTLTISRLEPEDFAVYYCQQHNQYPNTFGQGTKVEIKR is ____. 0.64

Fill in the blank: the reported IL-2 release EC50, NCI-H226 co-culture, Donor A of FS22-172-003-AA/FS28-024-053 (bispecific antibody, human IgG1, kappa, L234A L235A, V domains shown, IgG1 mAb^2 with LALA) VH: EVQLLESGGGLVQPGGSLRLSCAASGFTLSYSSMSWVRQAPGKGLEWVSFITPSTGYTHYADSVKGRFTISRDNSKNTLYLQMNSLRAEDTAVYYCARRALVFDYWGQGTLVTVSS VL: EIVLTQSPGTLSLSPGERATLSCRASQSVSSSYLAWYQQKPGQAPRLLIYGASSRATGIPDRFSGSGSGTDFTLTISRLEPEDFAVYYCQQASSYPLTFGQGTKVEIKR is ____. 0.07
